- Test system: K4 kissing-loop RNA reporter;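 also: bound reporter read as fluorescence of individual clusters on recovered sequencing chips by microscopy, with normalized cluster intensities fitted with a binding model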
- EXPERIMENTAL DETAILS: apparent KD of K4 kissing-loop reporter; higher = weaker reporter binding
- STATED CONDITIONS: Eterna round: R107; input ligand: arginine 13.2 mM
# if value of apparent KD of K4 kissing-loop reporter reaches 0.3 µM, tag true; if it stays below, tag false

Inquiry: Answer whether apparent KD of K4 kissing-loop reporter of UUUAACGAGUGAUGUUCGAAGAGUAAUGGUGAGGAUAUCGAUUUUUCGAGAAGGCACCUCGAAGUGAUACGAAAGUAUCGCUUCG [FMN A 5] is greater than or equal to 0.3 µM.
Reply text: false

Inquiry: Determine whether measured apparent KD of K4 kissing-loop reporter meets or exceeds 0.3 µM for AAUAAUCUAGGUGAUACCAGCUCAACAUGAGUGAUGUUCGUGAGCUAAUGUAGAGUUGAGAGCCCUUGGCAGCACCUAGAUAAUA [KL-SSTheoB7]
Reply text: true

Inquiry: Quick check, apparent KD of K4 kissing-loop reporter >= 0.3 µM? GGAUGGUAGGCGGCCGCCACUAAAACAGAACACAUACAAGCCAGUGAUGUUGGUAUGAUGGUGUAUAGGACCGGGCCUAGAUAGA [Exclusion - Tryptophan B (Freestyle 5)]
Reply text: false

Inquiry: Tell me whether apparent KD of K4 kissing-loop reporter is at least 0.3 µM here: `GGUAGCAUGGCGGCCGCCACUCAUGUAGAUACCUACAUAGUAAGCAGUGAUGUUGCUUUGUGGUUGAGGACCGGGCCAUGCUACC`
Reply text: false

Inquiry: Exam item: decide whether the reported apparent KD of K4 kissing-loop reporter for UAUUUAGUGACGGCCGCCACUAUUGUGAUUUAAUUGUUUGAGUGAUGUUUUGAUGUUUGAUUUUGUAGGACCGGGUUAUGUGUUA [tyttmullin] is at least 0.3 µM.
Reply text: true
